target: HDAC9 (Homo sapiens, UniProt Q9UKV0); assay: HDAC deacetylase homogenous fluorescence assay, HDAC9; type: biochemical
Sequence (Q9UKV0 whole entry): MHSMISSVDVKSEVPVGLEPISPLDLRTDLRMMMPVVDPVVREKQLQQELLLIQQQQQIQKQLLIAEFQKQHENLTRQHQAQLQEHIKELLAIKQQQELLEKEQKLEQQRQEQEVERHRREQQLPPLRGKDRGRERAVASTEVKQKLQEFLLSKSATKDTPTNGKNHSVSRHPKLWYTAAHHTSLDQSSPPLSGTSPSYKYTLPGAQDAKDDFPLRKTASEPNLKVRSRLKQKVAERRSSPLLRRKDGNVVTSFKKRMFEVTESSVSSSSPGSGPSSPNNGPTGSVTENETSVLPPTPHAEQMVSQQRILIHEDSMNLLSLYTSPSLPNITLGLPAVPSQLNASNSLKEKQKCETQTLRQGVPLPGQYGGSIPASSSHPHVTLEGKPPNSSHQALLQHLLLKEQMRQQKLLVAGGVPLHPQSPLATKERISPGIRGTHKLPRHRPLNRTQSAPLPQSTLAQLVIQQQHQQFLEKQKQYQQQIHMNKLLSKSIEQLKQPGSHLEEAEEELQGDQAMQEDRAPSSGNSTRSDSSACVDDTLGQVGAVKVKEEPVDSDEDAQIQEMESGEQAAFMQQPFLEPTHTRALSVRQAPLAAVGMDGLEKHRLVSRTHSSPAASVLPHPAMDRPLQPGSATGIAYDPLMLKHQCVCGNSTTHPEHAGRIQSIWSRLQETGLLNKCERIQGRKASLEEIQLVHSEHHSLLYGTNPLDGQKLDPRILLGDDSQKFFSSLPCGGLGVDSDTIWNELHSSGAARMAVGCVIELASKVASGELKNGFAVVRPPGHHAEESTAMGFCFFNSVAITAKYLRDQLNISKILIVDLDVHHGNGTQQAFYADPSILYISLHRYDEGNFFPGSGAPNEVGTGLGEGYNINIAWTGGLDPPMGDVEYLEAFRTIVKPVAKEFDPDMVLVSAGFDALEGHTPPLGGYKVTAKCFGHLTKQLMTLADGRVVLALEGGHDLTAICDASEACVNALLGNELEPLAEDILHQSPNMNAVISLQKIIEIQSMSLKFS
Please provide measured IC50 for the entries that follow.
Write the value in nM as a bare number.

Tell me measured IC50 for `O=c1c2ccccc2[se]n1-c1ccccc1` please.
970

Retrieve IC50 measured for `O=C1C(SCCO)=C(SCCO)C(=O)c2ccccc21` and print it.
4800

----------
target: UniProtKB Q8WUI4; assay: HDAC deacetylase homogenous fluorescence assay, HDAC7; format: biochemical; conditions: read-out: HDAC7 Ki; converted from IC50 using Cheng-Prusoff equation
Sequence (Q8WUI4 whole entry): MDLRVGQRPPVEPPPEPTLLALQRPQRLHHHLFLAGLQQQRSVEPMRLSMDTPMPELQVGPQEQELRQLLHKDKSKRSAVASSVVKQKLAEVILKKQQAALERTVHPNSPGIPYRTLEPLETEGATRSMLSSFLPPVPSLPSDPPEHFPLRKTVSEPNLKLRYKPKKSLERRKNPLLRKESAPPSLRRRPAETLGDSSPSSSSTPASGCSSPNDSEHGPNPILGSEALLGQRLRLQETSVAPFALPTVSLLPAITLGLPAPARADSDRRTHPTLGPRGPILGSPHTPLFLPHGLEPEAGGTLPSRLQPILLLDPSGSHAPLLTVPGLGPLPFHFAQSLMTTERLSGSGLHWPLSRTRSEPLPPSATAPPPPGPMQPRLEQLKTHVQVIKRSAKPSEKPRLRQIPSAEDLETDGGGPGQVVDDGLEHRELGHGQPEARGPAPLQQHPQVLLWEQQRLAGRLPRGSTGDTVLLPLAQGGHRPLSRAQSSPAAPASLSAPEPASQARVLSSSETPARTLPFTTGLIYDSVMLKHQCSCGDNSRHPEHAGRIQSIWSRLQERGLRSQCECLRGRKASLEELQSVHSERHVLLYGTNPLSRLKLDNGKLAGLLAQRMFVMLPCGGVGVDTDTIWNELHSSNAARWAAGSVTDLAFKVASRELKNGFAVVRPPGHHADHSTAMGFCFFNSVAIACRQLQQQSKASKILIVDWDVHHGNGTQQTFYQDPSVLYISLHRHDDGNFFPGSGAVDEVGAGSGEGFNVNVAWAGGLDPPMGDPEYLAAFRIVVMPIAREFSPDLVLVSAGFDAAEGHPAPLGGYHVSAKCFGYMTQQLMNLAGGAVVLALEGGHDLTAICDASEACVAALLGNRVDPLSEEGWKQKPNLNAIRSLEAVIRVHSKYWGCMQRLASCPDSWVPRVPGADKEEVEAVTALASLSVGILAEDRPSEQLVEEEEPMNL
quantity name: Ki (µM)
Write it as a number; the unit µM goes unstated.

Look up and state reported Ki for `NC(N)=Nc1ccc2[nH]c3c(c2c1)C[C@@]1(O)[C@H]2Cc4ccc(O)c5c4[C@@]1(CCN2CC1CC1)[C@H]3O5`
5.36

Specify reported Ki for the molecule shown: OC[C@H]1O[C@H]([S-])[C@H](O)[C@@H](O)[C@@H]1O.[Au+] [Aurothioglucose, 1-thio-D-glucopyronaose gold salt]
6.35
